Tested on: 407 cancer cell lines
Procedure Details: Cell viability of cancer cell lines (IC50), CellTiter-Glo Viability Assay, 96 h
Assay type: cell-based
Reported Conditions: SNU620, 96 h, SNU-620 cells, 96 h; read-out: Absolute IC50
pIC50: −log10 of the molar value.

>  <Mol Smiles>
Cc1nn(-c2nc(-c3ccc(C(F)(F)F)cc3)c(SC(C)C)s2)c(C(=O)O)c1-c1cccc(F)c1

>  <pIC50>
< 4.52

$$$$

* * *

System: 407 cancer cell lines
Procedure Details: Cell viability of cancer cell lines (IC50), CellTiter-Glo Viability Assay, 96 h
Format: cell-based
Reported Conditions: Homo sapiens, NCI-H747, 96 h, NCI-H747 cells, 96 h; read-out: Absolute IC50
pIC50: −log10 of the molar value.

>  <Compound>
Cc1nn(-c2nc(-c3ccc(C(F)(F)F)cc3)c(SC(C)C)s2)c(C(=O)O)c1-c1cccc(F)c1 [Compound A197]

>  <pIC50>
< 4.52

$$$$

* * *

Test system: 407 cancer cell lines
Procedure Details: Cell viability of cancer cell lines (IC50), CellTiter-Glo Viability Assay, 96 h
Assay type: cell-based
Reported Conditions: KARPAS-422; read-out: Absolute IC50
Readout: IC50 (nM)

>  <Molecule>
N.N.[Cl][Pt][Cl] [Cisplatin, reference compound]

>  <Assayed Target>
407 cancer cell lines

>  <Readout>
IC50

>  <Experimental Value>
1110

$$$$

* * *

Test system: SK-MEL-28
Procedure Details: Anti-proliferative activity, CellTiter-Glo, 72 hours: SK-MEL-28
Type: cell-based, human
Reported Conditions: SK-MEL-28 (melanoma), Cell-Titre-Glo
pIC50: −log10 of the molar value.

>  <Compound>
O=C(O)C(Cc1ccccc1[N+](=O)[O-])=NNc1nc(-c2ccc(Cl)c(Cl)c2)cs1 (mixture of isomers) [Compound 4EGI-1, 4EGI-1, reference compound]

>  <pIC50>
4.48

$$$$

* * *

Test system: NCI-H460
Procedure Details: Anti-proliferative activity, CellTiter-Glo, 72 hours: NCI-H460
Assay type: cell-based, human
Reported Conditions: Homo sapiens, NCI-H460 (non-small cell lung cancer), Cell-Titre-Glo
Listing of entries alongside the reported IC50.
Readout: IC50 (nM)

>  <Compound>
COC(=O)c1c(-c2cccc(F)c2)c(C)nn1-c1nc(C2=CCC(C(F)(F)F)CC2)c(SC(C)C)s1 (single isomer, unassigned)

>  <Experimental Value>
167

$$$$
>  <Compound>
Cc1nn(-c2nc(-c3ccc(C(F)(F)F)cc3)c(SC(C)C)s2)c(C(=O)O)c1-c1cccc(F)c1

>  <Experimental Value>
156

$$$$

* * *

Tested on: 407 cancer cell lines
Procedure Details: Cell viability of cancer cell lines (IC50), CellTiter-Glo Viability Assay, 96 h
Assay type: cell-based
Reported Conditions: Homo sapiens, HCT-116, HCT-116; read-out: Absolute IC50
pIC50: −log10 of the molar value.

>  <Mol Smiles>
Cc1nn(-c2nc(-c3ccc(C(F)(F)F)cc3)c(SC(C)C)s2)c(C(=O)O)c1-c1cccc(F)c1

>  <pIC50>
6.04

$$$$

* * *

Tested on: 407 cancer cell lines
Procedure Details: Cell viability of cancer cell lines (IC50), CellTiter-Glo Viability Assay, 96 h
Assay type: cell-based
Reported Conditions: Ramos cells, 96 h; read-out: Absolute IC50
Readout: IC50

>  <Compound>
N.N.[Cl][Pt][Cl] [Cisplatin, reference compound]

>  <Readout>
IC50

>  <Experimental Value>
0.64 µM

$$$$
